Measured TGI accompanies every entry in the list below.
Tested on: SF-539 CNS
Experiment: NCI tumour cell line growth inhibition, 48 h
experimental_readout: TGI (µM)

>>> assay_result("COc1cc(/C=C2\\SC(N3CCCCC3)=NC2=O)ccc1OCCCCCCOc1ccc(/C=C2\\SC(N3CCCCC3)=NC2=O)cc1OC")
24.2
>>> assay_result("COc1ccccc1N/C(SCc1ccccc1)=C(/C(Cl)=C(Cl)Cl)[N+](=O)[O-]")
31.1
>>> assay_result("O=c1[nH]cnc2n[nH]nc12")
23.9
>>> assay_result("COc1cc(-c2nn(-c3cccc(NC(=O)CCNc4ccc(N5CCOCC5)cc4)c3)cc2-c2ccncc2)ccc1Cl")
19.4

* * *

System: ACHN renal
Assay: NCI tumour cell line growth inhibition, 48 h
experimental_readout: GI50

>>> assay_result("O=CN1N=C(c2cccc(Nc3ccnc4cc(Cl)ccc34)c2)CC1c1ccc(Cl)cc1 (stereo not drawn)")
"5.17 µM"
>>> assay_result("CN(C)c1ccc(-c2ccc(-c3ccc(C(=N)N)cn3)o2)cc1")
"1.75 µM"
>>> assay_result("CCOC(=O)c1c(CN2CCN(C)CC2)nc2ccc(Cl)cc2c1-c1ccccc1")
"12.2 µM"

* * *

Tested on: SR leukemia
Experiment: NCI tumour cell line growth inhibition, 48 h
experimental_readout: TGI

>>> assay_result("COc1ccc(/C=N/NS(=O)(=O)c2ccccc2)cc1")
"> 100 µM"
>>> assay_result("COC(=O)c1c(O)ccc2c1c1c(n2Cc2cc(OC)cc(OC)c2)C(=O)c2ccccc2C1=O")
"> 100 µM"
>>> assay_result("O=[N+]1[C@H](c2ccccc2)[C@H](c2ccccc2)N1[O-]")
"37.7 µM"
>>> assay_result("COc1ccc(/C=C/C(=O)c2cc3c(N)c(C(=O)Nc4ccc(OC)cc4)sc3nc2C)cc1")
"> 50 µM"
>>> assay_result("C=C1C2=C(CCCC2)C(=O)OC12CCCCC2")
"> 100 µM"
>>> assay_result("O=c1oc2c3ccc4ccccc4c3n(CCN3CCCCC3)c2c2ccccc12")
"> 100 µM"
>>> assay_result("COc1ccc(Br)c(C(=O)N2CCc3ccccc32)c1N")
"79.1 µM"
>>> assay_result("CO/C(=N\\N=C\\c1ccc(Cl)c(Cl)c1)c1ccncc1")
"> 10 µM"
>>> assay_result("Cc1ccc2ccc(-c3ccccc3)c3c2c1C(=O)c1ccccc1C3=O")
"> 100 µM"
>>> assay_result("CCOC(=O)c1nc2ccc(C(F)(F)F)cc2nc1Nc1ccc(OC)cc1")
"> 100 µM"
>>> assay_result("CC(C)[C@H]1NC(=O)[C@H]2N=C(S[C@H]2C)[C@@H]2CCCN2C(=O)[C@H](Cc2ccccc2)NC(=O)[C@@H]2CSC(=N2)[C@@H](Cc2ccccc2)NC(=O)[C@@H]2CSC1=N2")
"19.7 µM"
>>> assay_result("COC(=O)C(=O)Nc1cc2c3c(c1)Oc1cccc4c1C3(C)c1c(cccc1O2)O4")
"> 100 µM"
>>> assay_result("CCN(c1ccccc1)[C@H]1C(=O)N(c2ccc([N+](=O)[O-])cc2)[C@H]1c1ccc(OC)cc1")
"> 100 µM"
>>> assay_result("O=CN1N=C(c2cccc(Nc3ccnc4cc(Cl)ccc34)c2)CC1c1ccc(Cl)cc1 (stereo unspecified)")
"2.13 µM"
>>> assay_result("O=c1c(Sc2c(SCSc3cnc4ccccc4c3Sc3c[nH]c4ccccc4c3=O)cnc3ccccc23)c[nH]c2ccccc12")
"25 µM"
>>> assay_result("COc1ccc2nc3ccc(OC)cc3c(SCCCl)c2c1")
"15.6 µM"
>>> assay_result("Cc1ccc(S(=O)C(C)C(Cl)c2ccccc2)cc1 (stereo unspecified)")
"> 100 µM"
>>> assay_result("CC(C)(C)OC(=O)CCCCCNC(=O)CCCCCNC(=O)CCC(CN(CC(=O)OCc1ccccc1)CC(=O)OCc1ccccc1)N(CC(=O)OCc1ccccc1)CC(=O)OCc1ccccc1 (stereo unspecified)")
"> 100 µM"
>>> assay_result("Cc1cc(S(N)(=O)=O)c(S/C(=N\\NS(=O)(=O)c2ccccc2)c2ccc(Cl)cc2)cc1Cl")
"> 100 µM"
>>> assay_result("CC(=O)N1C(Nc2nccs2)CCN1c1ccccc1 (stereo unspecified)")
"> 10 µM"
>>> assay_result("CC(C)(C)O/N=C/c1cc(NC(=S)c2ccsc2)ccc1Cl")
"13.9 µM"

* * *

Tested on: M14 melanoma
Experiment: NCI tumour cell line growth inhibition, 48 h
experimental_readout: TGI

>>> assay_result("CN=c1sc2nc(C#N)c(C#N)nc2n1C")
"> 58.9 µM"
>>> assay_result("CC(=O)N1C(Nc2nccs2)CCN1c1ccccc1 (stereo not given)")
"> 10 µM"
>>> assay_result("CCCCCCCCCCCCCCCC[n+]1ccccc1")
"1.04 µM"
>>> assay_result("CCOC(=O)c1c(NC(=O)c2ccc(Cl)cc2)sc2c(CN(C)C)c(O)ccc12")
"5.87 µM"
>>> assay_result("CC(C)CC(N)C(=O)NC(C(=O)NC(CCCNC(=N)N)C(=O)NC(CS)C(=O)NC1CSCC(C(=O)NC(Cc2ccccc2)C(=O)NC(C(=O)NC(CCCNC(=N)N)C(=O)O)C(C)C)NC(=O)C2CCCN2C(=O)C(CCCCN)NC(=O)C2CCCN2C(=O)C2CCCN2C(=O)C(Cc2ccc(O)cc2)NC(=O)C(CO)NC(=O)C(CCCCN)NC(=O)C(C(C)O)NC(=O)C(Cc2c[nH]c3ccccc23)NC1=O)C(C)C (stereo not given)")
"> 25 µM"

* * *

Test system: A549 NSCLC
Test: NCI tumour cell line growth inhibition, 48 h
experimental_readout: TGI (µM)

>>> assay_result("CC[C@H]1OC(=O)[C@H](C)[C@@H](O[C@H]2C[C@@](C)(OC)[C@@H](O)[C@H](C)O2)[C@H](C)[C@@H](O[C@@H]2O[C@H](C)C[C@H](N(C)C)[C@H]2O)[C@](C)(OC)C/C(C)=C2/O[C@@]1(C)C=C2C")
3.42
>>> assay_result("CCOC(=O)/C(=C\\c1ccc2ccccc2c1)P(=O)(OCC)OCC")
11.6
>>> assay_result("CS(=O)(=O)Nc1cc(-c2ccc3ncnc(Nc4cccc(Cl)c4)c3c2)cnc1Cl")
4.17

* * *

Test system: SF-295 CNS
Assay: NCI tumour cell line growth inhibition, 48 h
experimental_readout: TGI

>>> assay_result("CC(C)[C@H]1NC(=O)[C@H]2N=C(S[C@H]2C)[C@@H]2CCCN2C(=O)[C@H](Cc2ccccc2)NC(=O)[C@@H]2CSC(=N2)[C@@H](Cc2ccccc2)NC(=O)[C@@H]2CSC1=N2")
"> 50 µM"
>>> assay_result("CCN(c1ccccc1)[C@H]1C(=O)N(c2ccc([N+](=O)[O-])cc2)[C@H]1c1ccc(OC)cc1")
"> 100 µM"
>>> assay_result("O=c1[nH][nH]c(=O)c2c1ccc1oc3ccccc3c12")
"> 100 µM"

* * *

Test system: CCRF-CEM leukemia
Assay: NCI tumour cell line growth inhibition, 48 h
experimental_readout: TGI

>>> assay_result("C=C1C[C@@H]2O[C@H]3[C@H]4[C@@H](CC[C@@](C)(OC(=O)CCC)[C@H]42)[C@@H](C)C(=O)O[C@@]3(C)CC[C@H]1OO")
"14.8 µM"
>>> assay_result("COc1cc(C2c3cc4c(cc3C(=O)C3CCC(=O)N32)OCO4)cc(OC)c1O (stereo not drawn)")
"> 50 µM"
>>> assay_result("COc1ccccc1C(=O)N(Cc1ccccc1)c1ccc(Cl)c(C(=O)OC(C)C)c1")
"> 100 µM"

* * *

Test system: SF-539 CNS
Test: NCI tumour cell line growth inhibition, 48 h
experimental_readout: TGI

>>> assay_result("CCN(c1ccccc1)[C@H]1C(=O)N(c2ccc([N+](=O)[O-])cc2)[C@H]1c1ccc(OC)cc1")
"> 100 µM"
>>> assay_result("CCCCCCCCC(O)c1ccc(/C=C\\C(O)CCCC(=O)O)s1 (stereo unspecified)")
"> 100 µM"
>>> assay_result("COc1ccc2nc3ccc(OC)cc3c(SCCCl)c2c1")
"> 50.5 µM"
>>> assay_result("CCCNCCCCC(NC(C)=O)C(=O)NCc1ccccc1 (stereo unspecified)")
"> 100 µM"
>>> assay_result("CC(=O)OCC1OC(n2c3c(cc(C#N)c2=S)CCCC3)C(OC(C)=O)C(OC(C)=O)C1OC(C)=O (stereo unspecified)")
"> 100 µM"
>>> assay_result("N#CCc1cccc(CC#N)c1Br")
"> 100 µM"
